assayedTarget: T1, MORF DPF domain (residues 211–322), wild type (human, UniProt Q8WYB5 211-322)
T1 chain: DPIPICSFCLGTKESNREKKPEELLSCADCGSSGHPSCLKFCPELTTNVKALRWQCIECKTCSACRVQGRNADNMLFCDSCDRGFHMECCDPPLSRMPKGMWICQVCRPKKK
assayMetric: pKd
# reply with the number alone; pKd is -log10 of concentration in mol/L

In: Recorded pKd of ARTKQTARKSTGGKAPRKQ [unmodified histone H3 peptide (residues 1–19 of H3)] , please.
Out: 5.44
